- Tested on: Escherichia coli TOP10;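 further: peptides expressed intracellularly from a pBAD plasmid library in pooled LB shake-flask culture, induced with 0.3% L-arabinose, DNA abundance read by NGS, three biological replicates, DESeq2 with apeglm shrinkage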
- METHOD: shrunken log2 fold change of peptide-encoding DNA abundance (4.5 h post-induction vs induction); higher = less antimicrobial activity (less host growth inhibition)
- CONDITION: time post-induction: 4.5 h; library: site-saturation at positions 5, 18, 19, 20
PROPERTY NAME: shrunken log2 fold change

[
  {
    "POLYMER SEQUENCE": "RRIRERPPRLPRPRPRPHNRPRP",
    "ASSAY VALUE": -0.0587
  },
  {
    "POLYMER SEQUENCE": "RRIRNRPPRLPRPRPRPNDSPRP",
    "ASSAY VALUE": -0.235
  },
  {
    "POLYMER SEQUENCE": "RRIRCRPPRLPRPRPRPNSWPRP",
    "ASSAY VALUE": 0.0889
  },
  {
    "POLYMER SEQUENCE": "RRIRVRPPRLPRPRPRPWPEPRP",
    "ASSAY VALUE": 0.465
  },
  {
    "POLYMER SEQUENCE": "RRIRKRPPRLPRPRPRPIFSPRP",
    "ASSAY VALUE": -0.143
  },
  {
    "POLYMER SEQUENCE": "RRIRYRPPRLPRPRPRPRPVPRP",
    "ASSAY VALUE": 0.0983
  },
  {
    "POLYMER SEQUENCE": "RRIRFRPPRLPRPRPRPSKLPRP",
    "ASSAY VALUE": -0.42
  },
  {
    "POLYMER SEQUENCE": "RRIRNRPPRLPRPRPRPDMNPRP",
    "ASSAY VALUE": -0.0522
  },
  {
    "POLYMER SEQUENCE": "RRIRCRPPRLPRPRPRPIHGPRP",
    "ASSAY VALUE": -0.33
  },
  {
    "POLYMER SEQUENCE": "RRIRIRPPRLPRPRPRPLAWPRP",
    "ASSAY VALUE": 0.0118
  },
  {
    "POLYMER SEQUENCE": "RRIRSRPPRLPRPRPRPRKNPRP",
    "ASSAY VALUE": -0.0439
  },
  {
    "POLYMER SEQUENCE": "RRIRMRPPRLPRPRPRPRPYPRP",
    "ASSAY VALUE": 0.126
  },
  {
    "POLYMER SEQUENCE": "RRIRRRPPRLPRPRPRPRCQPRP",
    "ASSAY VALUE": 0.385
  },
  {
    "POLYMER SEQUENCE": "RRIRDRPPRLPRPRPRPHPTPRP",
    "ASSAY VALUE": 0.0176
  },
  {
    "POLYMER SEQUENCE": "RRIRKRPPRLPRPRPRPPAMPRP",
    "ASSAY VALUE": 0.635
  }
]

Source: the supplement of paper PMC9112550
